Source: patent US20240369485A1

target: CaSR (wildtype) (Homo sapiens); construct: expressed in transfected cells; host or cells: HEK293; experiment: Epifluorescence imaging of CaSR mediated ER Ca^2+ dynamics using R-CatchER and Fura-2 in HEK293 cells; format: cell-based; conditions: in the presence of Ca^2+, HEK293 CaSR, R-CatchER
Sequence (P41180 20-1078): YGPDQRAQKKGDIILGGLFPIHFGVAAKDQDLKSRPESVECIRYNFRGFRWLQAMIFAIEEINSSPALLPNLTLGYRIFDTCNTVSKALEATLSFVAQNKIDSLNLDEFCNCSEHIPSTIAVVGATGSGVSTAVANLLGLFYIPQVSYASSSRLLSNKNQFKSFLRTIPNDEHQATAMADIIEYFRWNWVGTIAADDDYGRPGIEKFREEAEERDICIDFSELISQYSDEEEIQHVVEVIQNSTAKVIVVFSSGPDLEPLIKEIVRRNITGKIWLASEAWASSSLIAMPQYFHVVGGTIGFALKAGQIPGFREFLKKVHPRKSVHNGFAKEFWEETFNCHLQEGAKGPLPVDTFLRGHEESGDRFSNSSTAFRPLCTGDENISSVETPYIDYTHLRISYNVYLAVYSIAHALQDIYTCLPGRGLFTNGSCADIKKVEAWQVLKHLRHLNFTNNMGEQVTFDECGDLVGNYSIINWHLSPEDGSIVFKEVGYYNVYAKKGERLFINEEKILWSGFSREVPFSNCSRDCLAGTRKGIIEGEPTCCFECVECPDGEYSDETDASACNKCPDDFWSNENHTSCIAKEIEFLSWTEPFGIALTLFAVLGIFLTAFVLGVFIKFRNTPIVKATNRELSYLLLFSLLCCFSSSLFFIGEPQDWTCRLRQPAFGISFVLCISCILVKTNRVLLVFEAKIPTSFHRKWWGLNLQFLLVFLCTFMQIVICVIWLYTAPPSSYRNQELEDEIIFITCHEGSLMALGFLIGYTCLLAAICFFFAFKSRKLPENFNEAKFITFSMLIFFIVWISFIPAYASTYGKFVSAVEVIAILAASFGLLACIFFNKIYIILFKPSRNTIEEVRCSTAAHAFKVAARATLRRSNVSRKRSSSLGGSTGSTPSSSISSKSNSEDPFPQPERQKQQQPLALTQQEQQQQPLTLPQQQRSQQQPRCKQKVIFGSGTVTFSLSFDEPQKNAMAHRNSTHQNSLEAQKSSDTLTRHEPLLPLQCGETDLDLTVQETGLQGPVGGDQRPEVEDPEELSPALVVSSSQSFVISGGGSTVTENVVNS
measurementLabel: effect on frequency of ER Ca^2+ oscillations

1. O=C(O)[C@@H]1Cc2c([nH]c3ccccc23)CN1 : increased the frequency
2. C[C@@H](NCCCc1cccc(C(F)(F)F)c1)c1cccc2ccccc12 : increased the frequency
3. N[C@@H](Cc1ccccc1)C(=O)O : increased the frequency
